- System: NCI-H322M multicellular tumor spheroids, viability (% test/control)
- ASSAY COMMENT: Anticancer human tumor NCI-H322M cell line growth inhibition; active = viability on the fitted dose curve at most 10% of control; inactive = the rest;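 also: spheroids exposed to compound for seven days before readout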
- TEST CONTEXT: second compound 0.003 µM; first compound 3.16 µM
Use one of these outcomes when replying: yes = active, no = inactive

Previously resolved entries follow.
{"COMPOUND": "CC1COCCN1c1cc(-c2ccnn2C)c2ccnc(-c3ccn[nH]3)c2n1 (stereo not given) + CC[C@@]1(O)C(=O)OCc2c1cc1n(c2=O)Cc2cc3c(CN(C)C)c(O)ccc3nc2-1", "GROUP LABEL": "no"}
{"COMPOUND": "[2H]c1nc(C)nc([2H])c1-c1cc(NC[C@@H](C)c2cccc3c(C(=O)NC)ccnc23)ncn1 + COc1cc2c(cc1O)CCNC21CSC2c3c(OC(C)=O)c(C)c4c(c3C(COC1=O)N1C(O)C3Cc5cc(C)c(OC)c(O)c5C(C21)N3C)OCO4", "GROUP LABEL": "yes"}
{"COMPOUND": "COc1ccc([C@@H](O)c2cc(-c3ncnc4cc(N5CCOCC5)ccc34)c(F)cc2Cl)nn1 + CC[C@@]1(O)C(=O)OCc2c1cc1n(c2=O)Cc2cc3c(CN(C)C)c(O)ccc3nc2-1", "GROUP LABEL": "no"}

Query: State the result this test recorded for CC(C)n1c(=O)n(C)c2cnc3cc(F)c(-c4ccc(OCCCN5CCCCC5)nc4)cc3c21 + CC[C@@]1(O)C(=O)OCc2c1cc1n(c2=O)Cc2cc3c(CN(C)C)c(O)ccc3nc2-1 .
Response: no

Query: What would you report for CC(C)n1c(=O)n(C)c2cnc3cc(F)c(-c4ccc(OCCCN5CCCCC5)nc4)cc3c21 + COc1cc2c(cc1O)CCNC21CSC2c3c(OC(C)=O)c(C)c4c(c3C(COC1=O)N1C(O)C3Cc5cc(C)c(OC)c(O)c5C(C21)N3C)OCO4 ?
Response: yes
